meta.source: patent US20040247639A1

tested on: rat uterus; test: Rat uterine contractions, spontaneous and oxytocin-induced together; conditions: Rattus norvegicus; range over spontaneous and oxytocin-induced contractions; read-out: EC50, inhibition of uterine contractions
MEASURED_QUANTITY: EC50

MOLECULE_SMILES: O=C(O)CC[C@@H](CSc1ccc(Cc2ccccc2)cc1)NC(=O)CCCCCCc1ccccc1
TGT: rat uterus
EC50: 1 to 20 nM

Query block: Query: EC50; subject: Cc1c(CC(N)=O)c2cc(OCCCP(=O)(O)O)ccc2n1Cc1ccccc1
Result block: 80 to 200 nM

* * *

Target: human non-pancreatic secretory PLA2 (type IIa) (Homo sapiens)
Sequence (P14555 21-144): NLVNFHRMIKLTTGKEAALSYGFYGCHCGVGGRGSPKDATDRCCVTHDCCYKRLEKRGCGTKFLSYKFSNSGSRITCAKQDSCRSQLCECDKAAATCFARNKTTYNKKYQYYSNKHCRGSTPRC
Assay: Mixed micelle colorimetric assay for inhibition of human non-pancreatic sPLA2 (type IIa)
Format: biochemical
Conditions: thio-PC/Triton X-100 mixed micelles, 37° C., Dixon plot (FIG. 3); read-out: IC50 against human non-pancreatic sPLA2 (type IIa)
MEASURED_QUANTITY: pIC50
pIC50 is a log-scale quantity: -log10 of the concentration expressed in molar.

Query block: # lookup: pIC50 of O=C(O)CC[C@@H](CSc1ccc(Cc2ccccc2)cc1)NC(=O)CCCCCCc1ccccc1
Result block: 7.38
